Hi there, I'd appreciate the recorded pIC50 for every entry that follows.
- target.of.assay: hENT1 (Homo sapiens)
- Sequence (Q99808 whole entry): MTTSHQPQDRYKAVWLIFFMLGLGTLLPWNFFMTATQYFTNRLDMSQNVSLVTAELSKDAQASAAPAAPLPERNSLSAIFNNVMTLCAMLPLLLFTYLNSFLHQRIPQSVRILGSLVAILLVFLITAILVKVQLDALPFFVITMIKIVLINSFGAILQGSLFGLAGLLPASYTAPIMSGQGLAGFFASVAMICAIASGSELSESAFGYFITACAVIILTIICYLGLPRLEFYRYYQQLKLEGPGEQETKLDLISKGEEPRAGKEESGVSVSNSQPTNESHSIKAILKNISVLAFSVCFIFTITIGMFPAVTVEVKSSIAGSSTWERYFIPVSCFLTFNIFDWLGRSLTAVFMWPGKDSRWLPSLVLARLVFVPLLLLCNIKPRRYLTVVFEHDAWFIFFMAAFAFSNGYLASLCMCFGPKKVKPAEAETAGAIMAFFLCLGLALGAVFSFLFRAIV
- assay.overview: [3H]adenosine uptake into human RBC
For clarity, pIC50 is expressed as the negative log10 of concentration in mol/L.

Recorded pIC50 (molecule Cc1oc(-c2ccccc2)nc1C(=O)NCCN1CCCCCC1=O ): 4.29

So for COc1ccc(-c2nc(C(=O)Nc3cccc(-c4nnc5n4CCCCC5)c3)cs2)cc1OC , the logged pIC50 turned out to be 6.00

For record CCc1nnc(NC(=O)c2nc(-c3ccc(Cl)cc3)n3c2CCCCC3)s1 the listed pIC50 is 4.61

Short answer for O=C(Nc1ccccc1C(=O)NC1CC1)c1cccc(N2CCCC2=O)c1 : pIC50 was 4.14
